Biological target: Receptor-type tyrosine-protein kinase FLT3 (Homo sapiens)
Sequence (P36888 whole entry): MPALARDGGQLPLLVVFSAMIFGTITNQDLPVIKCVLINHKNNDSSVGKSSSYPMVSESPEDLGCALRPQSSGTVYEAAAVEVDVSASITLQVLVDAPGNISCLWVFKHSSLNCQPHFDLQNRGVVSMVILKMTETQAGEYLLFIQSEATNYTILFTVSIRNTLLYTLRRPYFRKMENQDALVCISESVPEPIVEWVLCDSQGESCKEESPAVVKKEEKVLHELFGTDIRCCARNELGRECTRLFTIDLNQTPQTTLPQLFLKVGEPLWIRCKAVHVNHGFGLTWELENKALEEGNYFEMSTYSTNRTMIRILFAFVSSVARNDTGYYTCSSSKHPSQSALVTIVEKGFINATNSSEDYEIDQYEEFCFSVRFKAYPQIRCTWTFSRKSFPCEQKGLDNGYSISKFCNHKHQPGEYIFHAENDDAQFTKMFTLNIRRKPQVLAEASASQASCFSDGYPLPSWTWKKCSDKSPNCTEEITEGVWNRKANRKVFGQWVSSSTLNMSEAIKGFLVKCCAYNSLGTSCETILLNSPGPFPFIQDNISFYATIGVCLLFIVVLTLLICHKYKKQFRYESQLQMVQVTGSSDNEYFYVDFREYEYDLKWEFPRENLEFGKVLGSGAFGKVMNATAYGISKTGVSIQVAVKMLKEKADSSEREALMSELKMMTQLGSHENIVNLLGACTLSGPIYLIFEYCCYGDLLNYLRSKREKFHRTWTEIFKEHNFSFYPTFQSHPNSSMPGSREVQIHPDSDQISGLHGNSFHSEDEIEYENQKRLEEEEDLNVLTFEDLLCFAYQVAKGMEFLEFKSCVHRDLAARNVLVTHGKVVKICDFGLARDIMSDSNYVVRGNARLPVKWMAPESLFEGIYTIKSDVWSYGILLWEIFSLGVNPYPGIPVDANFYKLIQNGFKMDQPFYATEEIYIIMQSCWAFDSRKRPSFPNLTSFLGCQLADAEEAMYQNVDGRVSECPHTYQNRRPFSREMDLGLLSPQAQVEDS
value-kind: IC50 (nM)
The reply should contain only the number, in nM.

Query: Param item = CC1(C)CC=C(c2nc(C3CC(C)(C)OC(C)(C)C3)ccc2NC(=O)c2nc(C#N)c[nH]2)CC1 ; retrieve measured IC50.
Reply: 190

====

Target: Aurora kinase C (Homo sapiens)
Sequence (Q9UQB9 whole entry): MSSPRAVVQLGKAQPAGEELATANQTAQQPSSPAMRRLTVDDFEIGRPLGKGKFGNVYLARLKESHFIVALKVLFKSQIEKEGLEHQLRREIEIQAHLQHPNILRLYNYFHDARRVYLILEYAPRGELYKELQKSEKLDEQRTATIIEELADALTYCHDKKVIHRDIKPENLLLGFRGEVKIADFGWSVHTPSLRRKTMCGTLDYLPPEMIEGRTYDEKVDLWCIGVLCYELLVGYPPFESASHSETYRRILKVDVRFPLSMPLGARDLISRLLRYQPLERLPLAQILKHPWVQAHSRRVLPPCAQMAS
Assay: Inhibition of AURKC (unknown origin)
value-kind: pIC50
Keep in mind that pIC50 stands for -log10 of concentration in molar terms.

Query: So what's the measured pIC50 for this one? COc1nc(F)ccc1CNc1ccc(Cc2c[nH]c3ncc(C)cc23)c(F)n1
Reply: 6.00

====

Target: Tyrosine-protein kinase Lck (Homo sapiens)
Sequence (P06239 whole entry): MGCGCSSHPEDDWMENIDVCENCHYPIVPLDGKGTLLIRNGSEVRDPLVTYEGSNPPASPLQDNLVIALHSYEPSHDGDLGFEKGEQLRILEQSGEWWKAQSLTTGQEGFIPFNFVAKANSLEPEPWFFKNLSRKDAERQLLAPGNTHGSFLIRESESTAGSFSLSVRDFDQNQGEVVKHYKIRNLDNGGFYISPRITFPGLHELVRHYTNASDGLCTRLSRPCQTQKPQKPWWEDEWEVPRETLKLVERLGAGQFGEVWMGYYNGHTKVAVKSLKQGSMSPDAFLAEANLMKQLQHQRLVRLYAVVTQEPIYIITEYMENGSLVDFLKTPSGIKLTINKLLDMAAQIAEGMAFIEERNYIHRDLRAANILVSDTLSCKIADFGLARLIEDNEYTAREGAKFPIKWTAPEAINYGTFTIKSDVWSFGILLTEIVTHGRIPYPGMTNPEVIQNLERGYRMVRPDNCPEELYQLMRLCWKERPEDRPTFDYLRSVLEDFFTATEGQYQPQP
value-kind: IC50 (nM)
Kindly provide the numeric value in nM only, without the unit symbol.

Query: I am curious: what IC50 value has been reported for FC(F)(F)c1ccc(CNc2ccc(Cc3c[nH]c4ncc(Cl)cc34)cn2)cn1 ?
Reply: 860

====

I'd be grateful if you could share measured IC50 for these entries.
Target: UniProt P07333
Sequence (P07333 whole entry): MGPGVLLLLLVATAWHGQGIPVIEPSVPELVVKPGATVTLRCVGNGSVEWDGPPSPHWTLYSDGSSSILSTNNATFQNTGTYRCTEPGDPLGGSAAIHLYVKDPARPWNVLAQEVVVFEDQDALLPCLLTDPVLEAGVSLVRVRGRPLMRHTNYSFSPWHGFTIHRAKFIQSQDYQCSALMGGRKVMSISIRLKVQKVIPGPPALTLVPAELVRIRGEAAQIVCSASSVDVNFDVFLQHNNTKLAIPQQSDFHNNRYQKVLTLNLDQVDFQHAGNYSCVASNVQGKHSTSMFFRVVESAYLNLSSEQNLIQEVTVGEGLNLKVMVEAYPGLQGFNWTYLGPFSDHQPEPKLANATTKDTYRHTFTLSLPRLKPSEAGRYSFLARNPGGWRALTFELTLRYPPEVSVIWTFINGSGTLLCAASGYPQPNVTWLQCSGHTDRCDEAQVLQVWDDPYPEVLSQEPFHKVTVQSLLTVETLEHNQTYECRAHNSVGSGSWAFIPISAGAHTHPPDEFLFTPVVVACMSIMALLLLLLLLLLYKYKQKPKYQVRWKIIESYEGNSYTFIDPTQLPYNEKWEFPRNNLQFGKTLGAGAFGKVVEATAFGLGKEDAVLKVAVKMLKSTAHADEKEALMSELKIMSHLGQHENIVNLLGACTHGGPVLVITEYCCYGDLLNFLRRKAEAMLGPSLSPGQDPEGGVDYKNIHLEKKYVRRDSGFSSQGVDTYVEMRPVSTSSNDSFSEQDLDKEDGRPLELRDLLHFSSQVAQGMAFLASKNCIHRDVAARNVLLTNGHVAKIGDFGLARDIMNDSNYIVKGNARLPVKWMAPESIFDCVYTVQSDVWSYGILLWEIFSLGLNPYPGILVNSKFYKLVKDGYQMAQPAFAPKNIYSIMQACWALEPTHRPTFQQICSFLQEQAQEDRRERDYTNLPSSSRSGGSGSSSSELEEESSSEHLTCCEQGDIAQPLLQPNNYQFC
Experiment: Inhibition of CSF1R (unknown origin)
// units = nM; emit number, no label

Query: Query (compound): COc1ccc(COc2ncc(Oc3ccnc(C(=O)N[11CH3])c3)cc2OC)cc1 ; field requested: IC50
Reply: 12

Query: Repeat with Nc1nccc2c1ccn2-c1cccc(NC(=O)c2ccc(N3CCOCC3)c(C(F)(F)F)c2)c1
Reply: 30

Query: Follow-up entry: Cc1nc2[nH]cc(Cc3ccc(NCc4ccc(C(F)(F)F)nc4)nc3)c2c(C)c1O
Reply: 57800
